B1: C22orf15 (parent)
chain: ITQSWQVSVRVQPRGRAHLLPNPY

# Variants of: B1
# Procedure Summary: protein stability index of a GFP-peptide fusion (GPS, HEK-293T) (PSI 1-6); higher = more stable;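 also: lentivirally expressed fusions sorted by FACS into six bins by GFP to DsRed ratio, PSI derived from sequencing read proportions per bin multiplied by bin number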
# Condition Notes: c terminus: a fixed tail appended
Label rule, in plain words: protein stability index of 2 and up is true, under 2 is false.

[
  {
    "Mutant Name": "I1V",
    "Group": "false"
  }
]

Query: Check this variant for protein stability index at or above 2: `S4R`
Result: true

Query: Check this variant for protein stability index at or above 2: `S8D`
Result: true

Query: Check this variant for protein stability index at or above 2: `L20H`
Result: false

Query: Check this variant for protein stability index at or above 2: `V7Q`
Result: true

Query: Check this variant for protein stability index at or above 2: `Y24A`
Result: false

Query: Check this variant for protein stability index at or above 2: `Q6D`
Result: true

Query: Check this variant for protein stability index at or above 2: `L20Y`
Result: true

Query: Check this variant for protein stability index at or above 2: `W5C`
Result: true

Query: Check this variant for protein stability index at or above 2: `P21D`
Result: false

Query: Check this variant for protein stability index at or above 2: `L19I`
Result: true

Query: Check this variant for protein stability index at or above 2: `W5K`
Result: true

Query: Check this variant for protein stability index at or above 2: `A17P`
Result: false
